Assay: NCI Yeast Anticancer Drug Screen. Data for the wt1 strain (AID 149);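 further: 0% = growth of vehicle-treated wt1 cultures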
Conditions: S. cerevisiae wt1 strain (SPY 50644) growth inhibition; at 33.0 µM
Experimental: Growth inhibition of yeast strains with defined genetic alterations is measured as a screen for potential anti-cancer activity. Selected strains with alterations in DNA damage repair or cell cycle control were exposed to compounds and growth inhibition was measured relative to vehicle treated controls. The strain used in this assay is wt1
The panel holds about 79,000 compounds, 15% with a hit somewhere; the sample as a whole holds those more often. Activity calls are given as the source filed them. No stated cut-off is given here; in the data, active means growth inhibition above about 70%; inactive means the rest.
Give one outcome, nothing more. List: yes (active), no (inactive)

Check out these entries, answers already filled in.
{"compound": "CN(CC(=O)O)c1ccc(/C=C/c2ccnc3ccccc23)cc1", "categoryLabel": "no"}
{"compound": "CN(C)CCNc1cccc2sc3ccc(O)cc3c(=O)c12", "categoryLabel": "no"}
{"compound": "CC(=O)Oc1ccc(N2C(=O)C3c4[nH]c5ccccc5c4C4CCC(C(C)(C)C)CC4C3C2=O)cc1 (stereo unspecified)", "categoryLabel": "yes"}

-- ask Could you check what this test reported for Cc1cc(O)c2c(c1)C(=O)C=C(Br)C2=O ?
-- reply yes

-- ask Follow-up item: O=C1C=CC(=O)N1c1ccc(N2C(=O)C=CC2=O)cc1
-- reply yes

-- ask Follow-up item: CC[C@@]1(OC(=O)CCC(=O)O)C(=O)OCc2c1cc1n(c2=O)Cc2cc3ccccc3nc2-1
-- reply no

-- ask Follow-up item: Cc1ccc(S(=O)(=O)N(C)c2ccc(Cl)cc2C2=NCCc3ccccc32)cc1
-- reply no

-- ask Follow-up item: Clc1c(Cl)c(Cl)c2n[nH]nc2c1Cl
-- reply no

---

test: NCI Yeast Anticancer Drug Screen. Data for the wt2 strain (AID 169);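 further: 0% = growth of vehicle-treated yeast cultures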; conditions: S. cerevisiae wt2 strain growth inhibition; at 100.0 µM; active compounds read high
This is part of a sample that, as a whole, favours compounds with a hit. Of some 79,000 tested, about 15% had one in any assay. Activity calls are given as the source filed them. Cut-off read from the data, not from the text of the source: active = growth inhibition above about 70%; inactive = the rest.
measuredParameter: growth inhibition

Consider the worked cases shown below.
{"compound": "Cc1cc(O)c2c(c1O)C(=O)C13C(=C2O)C(=O)C2C(O)C1C1C(O)C3C(=O)C3=C(O)c4c(O)cc(C)c(O)c4C(=O)C321 (configuration not stated)", "measuredParameter": "growth inhibition", "assayResult": "85% (active)"}
{"compound": "O=C(O)c1ccccc1.[Ag]", "measuredParameter": "growth inhibition", "assayResult": "99% (active)"}
{"compound": "COc1cc([C@@H]2c3cc4c(cc3[C@@H](OC3OC5COC(C)OC5C(O)C3O)[C@H]3COC(=O)[C@H]23)OCO4)cc(OC)c1O (some centres not stated)", "measuredParameter": "growth inhibition", "assayResult": "3% (inactive)"}
{"compound": "O=C1c2cccc3cc([N+](=O)[O-])cc(c23)C(=O)N1CCN1CCCC1", "measuredParameter": "growth inhibition", "assayResult": "19% (inactive)"}
{"compound": "O=C(/C=C\\c1ccc([N+](=O)[O-])o1)Nc1ccc(Cl)cc1", "measuredParameter": "growth inhibition", "assayResult": "98% (active)"}

-- ask Given the compound Clc1c(Cl)c(Cl)c2n[nH]nc2c1Cl , what is its reported growth inhibition?
-- reply 94% (active)

-- ask Follow-up item: CCCc1[nH]nc(C(N)=O)c1N=NN(C)C
-- reply 10% (inactive)

-- ask Follow-up item: CC1OC(OC2CCCc3c(O)c4c(c(O)c32)C(=O)c2ccccc2C4=O)CC(N)C1O (configuration not stated)
-- reply 99% (active)

-- ask Follow-up item: O=C(O)c1cccc2cccc(-c3c4ccc(=O)cc-4oc4cc(O)ccc34)c12
-- reply 96% (active)
